- target under test: human mitochondrial Complex I (Homo sapiens, UniProt O75251+O75306+P03886)
- Sequence (O75251 39-213 limits assumed): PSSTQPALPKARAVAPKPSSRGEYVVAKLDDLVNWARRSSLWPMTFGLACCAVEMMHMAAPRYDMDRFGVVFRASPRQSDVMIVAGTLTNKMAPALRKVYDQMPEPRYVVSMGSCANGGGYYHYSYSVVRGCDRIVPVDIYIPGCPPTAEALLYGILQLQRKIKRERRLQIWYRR
- Sequence (O75306 34-463 limits assumed): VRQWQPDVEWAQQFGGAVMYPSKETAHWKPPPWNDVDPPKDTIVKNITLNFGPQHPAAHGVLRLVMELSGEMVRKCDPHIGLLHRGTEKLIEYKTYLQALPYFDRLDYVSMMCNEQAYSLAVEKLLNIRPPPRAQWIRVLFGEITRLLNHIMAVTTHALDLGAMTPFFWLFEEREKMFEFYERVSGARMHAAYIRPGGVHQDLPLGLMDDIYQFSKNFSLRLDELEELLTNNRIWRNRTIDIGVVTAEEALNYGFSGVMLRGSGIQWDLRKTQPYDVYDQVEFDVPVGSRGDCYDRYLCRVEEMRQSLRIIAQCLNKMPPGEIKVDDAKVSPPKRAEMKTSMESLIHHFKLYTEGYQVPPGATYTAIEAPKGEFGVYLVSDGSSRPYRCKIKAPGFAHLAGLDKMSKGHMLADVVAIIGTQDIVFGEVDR
- Sequence (P03886 whole entry): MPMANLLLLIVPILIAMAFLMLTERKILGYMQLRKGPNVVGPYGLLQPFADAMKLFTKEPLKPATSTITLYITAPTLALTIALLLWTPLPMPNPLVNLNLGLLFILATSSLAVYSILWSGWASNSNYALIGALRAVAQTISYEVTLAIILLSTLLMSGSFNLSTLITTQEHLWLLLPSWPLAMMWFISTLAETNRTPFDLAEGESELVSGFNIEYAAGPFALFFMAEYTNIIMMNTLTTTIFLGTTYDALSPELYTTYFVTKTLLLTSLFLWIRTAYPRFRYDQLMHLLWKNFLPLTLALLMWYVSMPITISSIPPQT
- Type: biochemical
- test settings: read-out: IC50 (Complex I inhibition); mitochondria from MDA-MB-453 tumor, absorbance 600 nm, 37° C.
measurement name: IC50 (µM)
Please state the figure in µM; there is no need to write the unit.

Assign IC50 to the following record: Cc1cnc(CN2CCC(c3ccc4nc(C(=O)N5CCN(Cc6ccc(C(F)(F)F)cc6)CC5)[nH]c4c3)CC2)cn1.Cl.Cl.Cl [Example 8, trihydrochloride]
0.083

----------
- target under test: human mitochondrial Complex I (Homo sapiens, UniProt O75251+O75306+P03886)
- Type: biochemical
- test settings: mitochondria from MDA-MB-453 tumor, absorbance 600 nm, 37° C.; read-out: IC50 (Complex I inhibition)
measurement name: IC50 (nM)
Please state the figure in nM; there is no need to write the unit.

COc1ccc(CN2CCC(c3cc4cc(C(=O)N5CCN(Cc6ccc(C(F)(F)F)cc6)CC5)n(C)c4cn3)CC2)cn1 [Example 44]    87
COc1cnc(CN2CCC(c3ccc4c(c3)cc(C(=O)N3CCN(Cc5ccc(C#N)cc5)CC3)n4C)CC2)cn1 [Ex 79]    120
COc1ccc(CN2CCC(c3ccc4nc(C(=O)N5CCN(Cc6ccc7c(c6)OC(F)(F)O7)CC5)[nH]c4c3)CC2)cn1 [Example 37]    29
COc1ccc(CN2CCC(c3ccc4nc(C(=O)N5CCN(Cc6ccc(C(F)(F)F)cc6F)CC5)[nH]c4c3)CC2)cn1 [Example 38]    59

State, for human mitochondrial Complex I (Homo sapiens, UniProt O75251+O75306+P03886), measured IC50 of the compound listed here: CCOc1cnc(CN2CCC(c3ccc4cc(C(=O)N5CCN(Cc6ccc(C#N)cc6)CC5)n(C)c4c3)CC2)cn1 [Example 69]
22

State, for human mitochondrial Complex I (Homo sapiens, UniProt O75251+O75306+P03886), measured IC50 of the compound listed here: COc1ccc(CN2CCC(c3ccn4nc(C(=O)N5CCN(Cc6ccc(C(F)(F)F)cc6)CC5)cc4c3)CC2)cn1 [Example 49]
18

State, for human mitochondrial Complex I (Homo sapiens, UniProt O75251+O75306+P03886), measured IC50 of the compound listed here: COc1cnc(CN2CCC(c3ccc4[nH]c(C(=O)N5CCN(Cc6ccc(C(F)(F)F)cc6)CC5)nc4c3)CC2)cn1 [Example 7, ditosylate]
75

State, for human mitochondrial Complex I (Homo sapiens, UniProt O75251+O75306+P03886), measured IC50 of the compound listed here: COc1ccc(CN2CCC(c3ccc4nc(C(=O)N5CCN(Cc6ccc(C#N)cc6)CC5)[nH]c4c3)CC2)cn1 [Example 23]
160

State, for human mitochondrial Complex I (Homo sapiens, UniProt O75251+O75306+P03886), measured IC50 of the compound listed here: CCOc1cnc(CN2CCC(c3ccc4c(c3)cc(C(=O)N3CCN(Cc5ccc(C#N)cc5)CC3)n4C)CC2)cn1 [Example 66]
120

State, for human mitochondrial Complex I (Homo sapiens, UniProt O75251+O75306+P03886), measured IC50 of the compound listed here: COc1ccc(CN2CCC(c3ccn4cc(C(=O)N5CCN(Cc6ccc(C(F)(F)F)cc6)CC5)nc4c3)CC2)cn1 [Example 36, ditosylate]
55
